B1: TMEM175 (parent)
chain: QTSAFARQPRDELERVRVSCTIIF

# Variants of: B1
# experiment_description: protein stability index of a GFP-peptide fusion (GPS, HEK-293T) (PSI 1-6); higher = more stable;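 also: lentivirally expressed fusions sorted by FACS into six bins by GFP to DsRed ratio, PSI derived from sequencing read proportions per bin multiplied by bin number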
# measurement_context: c terminus: a fixed tail appended
Label scheme for protein stability index: lower than 2 is -1, 2 and above is 1.

For orientation, consider the following solved cases.
Q8G: 1
C20S: -1
C20N: 1
E12T: 1
L13P: 1

Exam item: Reported protein stability index reaches at least 2 for "R10Q" ?
Marked response: 1

Exam item: Reported protein stability index reaches at least 2 for "Q1H" ?
Marked response: -1

Exam item: Reported protein stability index reaches at least 2 for "C20V" ?
Marked response: -1

Exam item: Reported protein stability index reaches at least 2 for "E14D" ?
Marked response: -1

Exam item: Reported protein stability index reaches at least 2 for "D11L" ?
Marked response: 1
